Recorded values, source patent US20210403576A1.

Reported Relative KD to VMDO2 VH0/Vk0 by item:
Target: T1, human c-Met (Sino Biological) (human, UniProt P08581 25-932, limits assumed)
T1 construct: Analyte in the Biacore assay; also called antigen (c-Met); printed as "human c-Met antibody (Sino Biological, Beijing, China)"
T1 sequence (P08581 25-932 limits assumed): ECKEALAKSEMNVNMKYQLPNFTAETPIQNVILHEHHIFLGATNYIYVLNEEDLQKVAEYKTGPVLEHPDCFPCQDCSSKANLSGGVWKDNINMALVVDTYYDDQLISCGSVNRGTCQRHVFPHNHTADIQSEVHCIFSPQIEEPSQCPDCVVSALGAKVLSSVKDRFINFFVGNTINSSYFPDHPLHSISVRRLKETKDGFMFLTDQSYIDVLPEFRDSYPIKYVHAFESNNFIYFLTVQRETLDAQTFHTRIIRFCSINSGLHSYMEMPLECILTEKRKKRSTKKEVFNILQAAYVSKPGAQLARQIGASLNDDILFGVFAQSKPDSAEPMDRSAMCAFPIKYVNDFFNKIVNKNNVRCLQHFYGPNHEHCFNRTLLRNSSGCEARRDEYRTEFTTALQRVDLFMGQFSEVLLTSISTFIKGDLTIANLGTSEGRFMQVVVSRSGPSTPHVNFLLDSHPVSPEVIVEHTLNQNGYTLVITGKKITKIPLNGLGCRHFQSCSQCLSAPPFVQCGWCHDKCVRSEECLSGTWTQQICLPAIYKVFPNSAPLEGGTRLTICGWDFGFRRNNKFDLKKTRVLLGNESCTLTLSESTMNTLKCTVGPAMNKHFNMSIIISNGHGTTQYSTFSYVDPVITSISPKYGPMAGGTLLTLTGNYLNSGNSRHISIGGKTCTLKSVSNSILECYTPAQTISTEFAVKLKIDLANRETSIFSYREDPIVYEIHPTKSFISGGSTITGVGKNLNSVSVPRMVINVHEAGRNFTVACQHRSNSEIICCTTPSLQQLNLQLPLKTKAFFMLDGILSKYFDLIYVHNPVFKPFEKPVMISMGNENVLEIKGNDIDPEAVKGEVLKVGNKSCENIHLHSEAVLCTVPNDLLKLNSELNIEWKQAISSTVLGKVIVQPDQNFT
Assay: SPR (Biacore T200), IgG captured on Protein A CM5 chip, c-Met 0.15-2 nM as analyte
Lab note: jot the number down without any unit.

| binder | readout | quantitative.result |
| --- | --- | --- |
| VH5/Vk5 (antibody, IgG1, V domains shown, Full IgG1/kappa expressed in HEK 293 EBNA cells) VH: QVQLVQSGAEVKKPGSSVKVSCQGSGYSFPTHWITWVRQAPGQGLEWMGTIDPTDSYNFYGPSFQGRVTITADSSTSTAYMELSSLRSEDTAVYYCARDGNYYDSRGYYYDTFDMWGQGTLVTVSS VL: EIVLTQSPGTLSLSPGERATLSCRASQGISTYLAWYQQKPGQAPRLLIYSASTLESGIPDRFSGSGSGTDFTLTISRLEPEDFATYYCQQADSFPLTFGGGTKVEIK | Relative KD to VMDO2 VH0/Vk0 | 0.97 |

Now consider the entry below.
**Q:** Name the reported Relative KD to VMDO2 VH0/Vk0 value associated with the binder VH6/Vk4 (antibody, IgG1, V domains shown, Full IgG1/kappa expressed in HEK 293 EBNA cells) VH: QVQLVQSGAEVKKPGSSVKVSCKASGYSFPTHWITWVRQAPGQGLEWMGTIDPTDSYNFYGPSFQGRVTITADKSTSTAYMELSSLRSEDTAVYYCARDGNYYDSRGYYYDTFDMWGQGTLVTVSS VL: EIQMTQSPGTLSLSPGERATLSCRASQGISTYLAWYQQKPGQAPRLLIYSASTLESGVPDRFSGSGSGTDFTLTISRLEPEDFATYYCQQADSFPLTFGGGTKVEIK
**A:** 0.75
